%Inh for assorted compounds
Test system: SGK2
Details: concentration: 1 μM,replicates: in singlicate; n = 1;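 note: KINOMEscan kinase panel screen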
Give the number; % is assumed, so skip it.

Below, each entry is followed by its recorded %Inh result.
CC(C)c1nc(-c2cccc(NS(=O)(=O)c3ccccc3)c2)c(-c2ccnc(Nc3ccc4c(c3)CN(C)CC4)n2)s1 = 35
C[C@@H](Oc1cc(-n2cnc3ccc(-c4ccncc4)cc32)sc1C(N)=O)c1ccccc1Cl = 14
O=C1NCCc2[nH]c(-c3ccncc3)cc21 = 27

Please report the recorded %Inh for O=C(Nc1cccc(Oc2ccc3nccn3n2)c1)Nc1cccc(C(F)(F)F)c1 .
8

###

Form field: %Inh (one value per entry).
Test system: CSF1R-autoinhibited
Details: concentration: 1 μM,replicates: in singlicate; n = 1
Give just the numeric value; % need not be written.

Cl.Cl.NC[C@H](CC1CCCCC1)NC(=O)c1ccc(-c2ccnc3[nH]ccc23)s1 [GSK1581428] = 0

Could you share which %Inh value was measured for O=C(Nc1cccc(C(F)(F)F)c1)c1cccc(Oc2ccc3nccn3n2)c1 ?
16

Follow-up entry: COC(=O)c1cccc(NC(=O)NC2CCN(c3ccnc(Nc4cc(OC)c(OC)c(OC)c4)n3)C2)c1 (stereo not shown) [GSK1379767]
34

Try this compound too: Cn1ccc2ncnc(Oc3ccc(NC(=O)Nc4cccc(C(F)(F)F)c4)c(Cl)c3)c21
18

Thanks! And O=C(NOCC1CC1)c1cc(Br)c(F)c(F)c1Nc1ccc(I)cc1Cl ?
0

Moving on to CCCC(=O)Nc1n[nH]c2ncccc12 [SB-601436]
0

Query COc1ccc(Nc2nccc(N3CCC(NC(=O)c4cccc(C#N)c4)C3)n2)cc1 (stereo not shown) [GSK1379730] next
24
